experiment: 7-d dose range-finding toxicity and toxicokinetic study in rats; type: in vivo, rat; settings: both, Sprague-Dawley, rat, in vivo
Assay Readout: NOAEL at 7 d

Query string: # query: NOAEL at 7 d of entry COc1nc(-c2cc(C)c(N[C@@H](C)c3cc(F)cc(F)c3)nn2)ccc1-n1cnc(C)c1 [Compound 2]
Result string: ≥ 50 mg/kg

----------
biological target: hERG channel (Homo sapiens, UniProt Q12809); assay: Patch-Xpress patch-clamp hERG assay in HEK-293 cells
Sequence (Q12809 whole entry): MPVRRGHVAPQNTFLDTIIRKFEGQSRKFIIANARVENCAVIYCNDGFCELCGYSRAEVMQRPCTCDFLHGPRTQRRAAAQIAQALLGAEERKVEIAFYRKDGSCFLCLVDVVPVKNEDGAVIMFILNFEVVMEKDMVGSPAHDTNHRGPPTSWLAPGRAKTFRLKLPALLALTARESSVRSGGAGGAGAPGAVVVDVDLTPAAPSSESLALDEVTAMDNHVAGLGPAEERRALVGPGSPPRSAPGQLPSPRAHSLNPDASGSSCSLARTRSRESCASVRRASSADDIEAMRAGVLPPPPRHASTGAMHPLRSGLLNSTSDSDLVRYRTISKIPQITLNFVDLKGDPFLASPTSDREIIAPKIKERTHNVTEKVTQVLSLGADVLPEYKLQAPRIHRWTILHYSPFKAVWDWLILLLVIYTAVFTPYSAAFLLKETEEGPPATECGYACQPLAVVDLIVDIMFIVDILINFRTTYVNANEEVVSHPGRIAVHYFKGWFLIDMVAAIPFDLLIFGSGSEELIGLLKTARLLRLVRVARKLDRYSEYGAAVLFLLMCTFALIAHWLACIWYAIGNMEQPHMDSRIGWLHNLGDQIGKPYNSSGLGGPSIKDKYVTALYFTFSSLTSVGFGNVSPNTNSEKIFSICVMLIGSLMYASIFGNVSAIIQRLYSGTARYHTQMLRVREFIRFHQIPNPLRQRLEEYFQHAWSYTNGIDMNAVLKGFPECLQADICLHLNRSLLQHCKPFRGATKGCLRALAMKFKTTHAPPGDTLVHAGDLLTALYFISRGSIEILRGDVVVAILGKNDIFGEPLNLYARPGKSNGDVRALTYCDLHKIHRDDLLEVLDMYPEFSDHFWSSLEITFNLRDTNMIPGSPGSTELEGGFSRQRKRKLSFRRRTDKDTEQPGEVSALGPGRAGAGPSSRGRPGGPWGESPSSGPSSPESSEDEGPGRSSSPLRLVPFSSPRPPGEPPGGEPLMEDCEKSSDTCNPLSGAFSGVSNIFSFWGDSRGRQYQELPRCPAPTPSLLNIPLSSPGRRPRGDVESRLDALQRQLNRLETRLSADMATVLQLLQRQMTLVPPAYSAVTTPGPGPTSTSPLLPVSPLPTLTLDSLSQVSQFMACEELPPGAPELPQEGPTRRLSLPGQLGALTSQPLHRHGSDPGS
The following compounds are listed with their measured pIC50 values.
Units for pIC50: none; it is -log10 of a concentration expressed in mol/L.

# Smiles String, Measured On, Assay Readout, Numeric Readout
rows = [
    ("COc1nc(-c2cc(C)c(N[C@@H](C)c3cc(F)cc(F)c3)nn2)ccc1-n1cnc(C)c1", "hERG channel (Homo sapiens, UniProt Q12809)", "pIC50", 5.14),
    ("COc1nc(-c2cc(C)c(N[C@@H](C)c3c(F)cc(F)cc3F)nn2)ccc1-n1cnc(C)c1", "hERG channel (Homo sapiens, UniProt Q12809)", "pIC50", 5.51),
]

Please turn your attention to the following entry.
Query string: Quick check: pIC50 on hERG channel (Homo sapiens, UniProt Q12809), item COc1nc(-c2cc(C)c(N[C@@H](C)c3ccc(F)cc3)nn2)ccc1-n1cnc(C)c1 ?
Result string: 5.21
